These data points were gathered from paper doi:10.1101/2020.03.30.016881.

molecular target: E. coli DnaK (Hsp70), unlabelled (E. coli, UniProt P0A6Y8 1-638); assay: fluorescence polarisation
Sequence (P0A6Y8 whole entry): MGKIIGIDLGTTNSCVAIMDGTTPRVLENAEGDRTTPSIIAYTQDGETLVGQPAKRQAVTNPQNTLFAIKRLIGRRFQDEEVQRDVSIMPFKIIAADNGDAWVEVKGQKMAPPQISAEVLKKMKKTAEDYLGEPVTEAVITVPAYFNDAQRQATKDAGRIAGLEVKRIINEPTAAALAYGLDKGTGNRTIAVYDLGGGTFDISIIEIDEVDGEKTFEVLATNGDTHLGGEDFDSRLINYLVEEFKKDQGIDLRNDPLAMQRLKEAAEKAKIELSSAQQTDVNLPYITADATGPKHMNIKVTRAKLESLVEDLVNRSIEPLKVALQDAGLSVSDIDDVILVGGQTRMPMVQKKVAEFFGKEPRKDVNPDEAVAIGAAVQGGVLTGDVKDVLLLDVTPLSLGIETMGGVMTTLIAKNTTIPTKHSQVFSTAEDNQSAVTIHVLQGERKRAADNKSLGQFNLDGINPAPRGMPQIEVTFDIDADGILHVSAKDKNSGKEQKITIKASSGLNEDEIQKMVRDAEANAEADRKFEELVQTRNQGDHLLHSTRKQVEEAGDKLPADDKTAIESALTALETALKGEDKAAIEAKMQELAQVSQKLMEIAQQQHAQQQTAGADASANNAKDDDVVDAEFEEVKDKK
No end group written: not given here. TMR = tetramethylrhodamine (5,6-carboxy TMR) linked to N-terminus
MEASURED PARAMETER: pKd
Keep it numeric: pKd is minus log10 of the concentration in mol/L.

What value of pKd has been reported for the following binder? {TMR}-KCNTATCATQRLANFLVHSSNNFGAILSSTNVGSNTY (ends and bridges not checked) [TMR-IAPP (human IAPP labelled with tetramethylrhodamine at the N-terminus)]
5.68
